# Tested on: SW-620
# assay-text: NCI tumour cell line growth inhibition, 48 h
Calls of active or inactive are those of the source. Rule as the data show it: active = GI50 up to about 1.1 µM and inactive = higher.
Classes used: y = active, n = inactive

• Nc1nccc(Nc2ccc(S(N)(=O)=O)cc2)n1 = n
• O=c1ccn(-c2ccccn2)c(=O)n1-c1ccccn1 = n
• CC1=CN(c2ccccc2)S2=C1c1sc3c(c1N2c1ccc(Br)cc1)CCCC3 (centres undefined) = n
• C/C(=N\O)c1ccc(Nc2c3ccccc3nc3occc23)cc1 = y
• CC(=O)c1c(C)cc2cccc(OC3OC(CO)C(O)C(O)C3O)c2c1O.CC1OC(O)C(O)C(O)C1O (centres undefined) = n
• Clc1cc(OC23CC4CC(CC(C4)C2)C3)nc(Cl)n1 = n
• C=C(CO)C(=O)OC1CC(=C)C2CC(O)C(C)C2C2OC(=O)C(=C)C12 (centres undefined) = n
• CCCCCCNC(=O)C(C)C1CCC2(C)C=CC(=O)C(C)=C2C1O (centres undefined) = n
• O=c1[nH]nc(Cc2ccccc2)n1CCO = n
• CC(=O)Nc1ccc(-c2nnc(SCC(=O)Nc3ccc(Cl)cc3Cl)o2)cc1 = n
• CC(C)(C)CC(N)=O = n
• COc1cc2c3c4c1OCc1c5c(cc(c1-4)CC3[N+](C)(C)CC2)OCO5 (centres undefined) = n
• Cc1[nH]c(=O)nc(NCCNCCO)c1C(=O)Nc1c2ccccc2nc2ccccc12 = n
• CC(C)=CC(=O)c1c(C(=O)O)nc2ccccc2[n+]1[O-] = n
• O=[N+]([O-])c1cccc2nc3ccccc3c(NCCN(CCO)CCO)c12 = y
• CCCCCCCCCCCCCCCCOC[C@H](COC(c1ccccc1)(c1ccccc1)c1ccccc1)O[PH](=S)OC (some centres undefined) = n
• C#CCCCCC#Cc1ccccc1C(=O)OC = n
• CCNC(=O)OCc1c(COC(=O)NCC)c(-c2ccc(Cl)c(Cl)c2)n2c1CCC2 = n
• O=c1[nH]c2ccccc2c(=O)c2cc3ccccc3cc12 = n

====

# Tested on: EKVX
# assay-text: NCI tumour cell line growth inhibition, 48 h
Calls of active or inactive are those of the source. Cut-off read from the data, not from the text of the source: active = GI50 up to about 1.1 µM and inactive = higher.
Classes used: label 1 for active, label 0 for inactive

* Cc1ccc(S(=O)(=O)NC(=O)C2S(=O)(=O)OCCOS2(=O)=O)cc1 | label 0
* O=[N+]([O-])c1cccc2nc3ccccc3c(NCCN(CCO)CCO)c12 | label 1
* COc1cc(OC)cc(N2CCC(c3c(N)nc(N)nc3Cl)CC2)c1 | label 0
* N#C/C(=C\c1cccc(Br)c1)c1nc2ccccc2c(=O)[nH]1 | label 0
* CSc1ccc2c(cc1=O)[C@@H](NC(=O)c1ccc(N)cc1)CCc1cc(O)c(O)c(O)c1-2 | label 0
* Cc1ncc(COP(=O)(O)O)c(/C=C2\SC(=S)NC2=O)c1O | label 0

====

# Test system: OVCAR-8
# assay-text: NCI tumour cell line growth inhibition, 48 h
Calls of active or inactive are those of the source. Cut-off read from the data, not from the text of the source: active = GI50 up to about 1.1 µM and inactive = higher.
Item-by-item account of GI50
quantity-name: GI50

- O=S(=O)(O)c1ccc(/N=N/c2nc(C(F)(F)F)c(C(F)(F)F)[nH]2)cc1: 29.4 µM (inactive)
- O=C(O)CCc1ccc2c(c1)C(=O)CC2: > 100 µM (inactive)
- CC1(C)COC2(OC1)C1=NS(=O)(=O)CC13CCC2C3(C)C (configuration not stated): > 100 µM (inactive)
- CSc1nc(NC2OCC(OC(C)=O)C(OC(C)=O)C2OC(C)=O)c(/N=C\C=N\c2c(NC3OCC(OC(C)=O)C(OC(C)=O)C3OC(C)=O)nc(SC)n(C)c2=O)c(=O)n1C (configuration not stated): > 100 µM (inactive)
- CCC1=CCN(c2cc(C)ccn2)OC1c1ccccc1 (configuration not stated): 53.1 µM (inactive)
- OCC1OC(N2CCN(C3OC(CO)C(O)C(O)C3O)CC2)C(O)C(O)C1O (configuration not stated): > 100 µM (inactive)
- N=C(N)N/N=C/c1cnn(C(=N)N)c1: > 100 µM (inactive)
- CSC1NC=Nc2c1sc(=S)n2-c1ccccc1 (configuration not stated): > 100 µM (inactive)
- C(=N\c1ccc(-c2nc3ccccc3o2)cc1)/c1ccco1: > 100 µM (inactive)
- O=C(O)C(Cc1cc(I)c(O)c(I)c1)C1CCCCC1 (configuration not stated): 38.6 µM (inactive)
- N=C(N)Nc1ccc(CC(N)C(=O)O)cc1 (configuration not stated): > 12.5 µM (inactive)
- CC(C)C(O)(C(C)C)C(C)C: > 100 µM (inactive)

====

# Tested on: HL-60
# assay-text: NCI tumour cell line growth inhibition, 48 h
Activity calls are given as the source filed them. Cut-off read from the data, not from the text of the source: active = GI50 up to about 1.1 µM and inactive = higher.
Classes used: y (active), n (inactive)

- COC1CC(CC2CCC(C)C(C(C)C(=O)O)O2)OC2(OC(C)(C3CCC(C)(C4OC(C5OC(O)(CO)C(C)CC5C)CC4C)O3)CC2C)C1C (configuration not stated): y
- CC1(C)OC[C@@]2([C@@H]3CC[C@@H](C3)C2(C)C)N1O: n
- COC(=O)N/N=C(\C)CC(=O)Nc1ccc(Cl)cc1: n
- CC(=O)O[C@H]1C(=O)[C@@]2(C)[C@H]([C@H](OC(=O)c3ccncc3)[C@]3(O)C[C@H](OC(=O)[C@H](O)[C@@H](NC(=O)c4ccccc4)c4ccccc4)C(C)=C1C3(C)C)[C@]1(OC(C)=O)CO[C@@H]1C[C@@H]2O: y
- CN1CCN(C(=O)CCNC(=O)Cc2ccc(C(=O)c3ccccc3)cc2)CC1: n
- CC1CC(c2ccc([N+](=O)[O-])cc2)=Nc2ccccc2[S+]1[O-] (configuration not stated): n
- COc1ccc(/C=C/C(=O)/C=C/c2ccc(OC)cc2OC)c(OC)c1: n

====

# System: A549
# assay-text: NCI tumour cell line growth inhibition, 48 h
Calls of active or inactive are those of the source. No stated cut-off is given here; in the data, active = GI50 up to about 1.1 µM and inactive = higher.
Classes used: active, inactive

• Cc1cc2c(c3c1c1ccccc1n3C)C(=O)C=CC2=O = inactive
• CN(C)c1nc(Cl)c2c(-c3ccccc3)c(-c3ccccc3)oc2n1 = inactive
• COc1ccc(/C=C2\CCC(CN(C)C)C2=O)cc1OC (stereo not drawn) = inactive
• C/C(=N\O)c1ccc(Nc2c3ccccc3nc3occc23)cc1 = active
• CCOC(=O)CP(=S)(S)c1ccccc1 (stereo not drawn) = inactive
• Cc1cn(C2CC(n3cc(Cn4ccc(=O)[nH]c4=O)nn3)C(CO)O2)c(=O)[nH]c1=O (stereo not drawn) = inactive
• O=c1[nH]c2ccccc2c(=O)c2cc3ccccc3cc12 = inactive
• CC1OC(n2cc(F)c(=O)[nH]c2=O)C=CC1=O (stereo not drawn) = inactive
• COc1cc2c(cc1C1=NC(C)(C)CO1)OCO2 = inactive
• CCOC(=O)c1c(OCC)[nH]c(=O)c(C(c2cccs2)c2c(O)c(C(=O)OCC)c(OCC)[nH]c2=O)c1O = inactive
• Fc1ccc(C(OCCN2CCC3CCC(C2)N3CCCc2ccccc2)c2ccc(F)cc2)cc1 (stereo not drawn) = inactive
• c1ccc2[nH]c(CNc3ccc(C4C[Se]N=N4)cc3)nc2c1 (stereo not drawn) = inactive
• CCOc1ccc(/C=N/[N+](C)(C)C)cc1OCC = inactive

====

# Test system: HCT-15
Item-by-item account of GI50
quantity-name: GI50

* c1ccc2[nH]c(CNc3ccc(C4C[Se]N=N4)cc3)nc2c1 (centres undefined) | > 100 µM
* Cc1[nH]c(=O)nc(NCCNCCO)c1C(=O)Nc1c2ccccc2nc2ccccc12 | > 100 µM
* C[n+]1ccccc1/C1=c2\cc/c([nH]2)=C(\c2cccc[n+]2C)C2=N/C(=C(/c3cccc[n+]3C)C3C=CC(N3)/C(c3cccc[n+]3C)=C3/C=CC1=N3)C=C2 | > 100 µM
* O=C(O)CCc1ccc2c(c1)C(=O)CC2 | > 100 µM
* C#CCN(N=O)C(=O)NCCCC(NC(C)=O)C(=O)NCc1ccccc1 (centres undefined) | > 100 µM
* O=c1[nH]nc2c3n[nH]c(=O)n3c3ccccc3n12 | > 100 µM
* CCOC(=O)c1nnsc1NN=C(C)C | > 100 µM
* CC(=O)OCC1=CC2OC(=O)C3=COC(OC4OC(CO)C(O)C(O)C4O)C1C32 (centres undefined) | > 100 µM
* CC(C#N)NCc1ccc(C(C)NC(C)C#N)cc1 (centres undefined) | > 100 µM
* Cc1cc2c(=O)c3ccccc3[nH]c2c(C(N)=O)c1C | > 100 µM
* OCC[N+]12CCCN1CCC2 | > 100 µM
* CN(C)CCCNC(=O)c1c(O)c2ccccc2[nH]c1=O | > 100 µM
* N#C/C(=C\n1ccc(=O)[nH]c1=S)C(N)=O | > 100 µM
* Cc1cc(/N=C/c2c(CO)cnc(C)c2O)c(/N=C/c2c(CO)cnc(C)c2O)cc1C | > 100 µM
* C=CC[P@@]1(=O)O[C@H](c2ccccc2)C(C)N1C(C)C (some centres undefined) | > 100 µM
* Nc1nc(Cl)cc(NCCCNc2cc(Cl)nc(N)n2)n1 | > 100 µM
* CN1CCN(C(=O)CCNC(=O)Cc2ccc(C(=O)c3ccccc3)cc2)CC1 | > 100 µM
* Cc1ncc(COP(=O)(O)O)c(/C=C2\SC(=S)NC2=O)c1O | > 100 µM
* CC(C)(C)CC(N)=O | > 100 µM
* CC1CNC(c2ccc3c(c2)Cc2cc(C4=NC(C)CN4)ccc2-3)=N1 (centres undefined) | > 100 µM
* O=c1ccn(-c2ccccn2)c(=O)n1-c1ccccn1 | > 100 µM
* Nc1cccc(S(=O)(=O)Nc2nnc(S(N)(=O)=O)s2)c1 | > 100 µM
* C=CC/C(C(=O)OC)=C(/C(=O)OC)N(CCC)CCC | > 100 µM
* COc1ccc(-n2c(C)nc3ccc(/N=C/c4ccccc4)cc3c2=O)cc1 | > 100 µM

From: ChEMBL document CHEMBL1201862
